# System: pupil diameter of cats
# test.protocol: Cat pupil diameter response (pupillary constriction in the cat)
# Type: in vivo
# condition.label: area under pupil diameter vs time curve 1-5 hours, estimated from dose response relationship
measure: ED5 (equivalent response dose, from Area1-5 of pupil diameter versus time curve) (µg)
Give a bare numeral; the unit µg is implied.

### Prompt Supply reported ED5 (equivalent response dose, from Area1-5 of pupil diameter versus time curve) belonging to this compound: CCCCC[C@H](O)/C=C/[C@@H]1[C@@H](C/C=C\CCCC(=O)OC(C)C)[C@@H](O)C[C@H]1O [PGF2α Isopropyl Ester, reference compound]
### Response 0.02

### Prompt Please report the measured ED5 (equivalent response dose, from Area1-5 of pupil diameter versus time curve) for CC(C)OC(=O)CCC/C=C\CC1C(CC[C@@H](O)COc2cccc(C(F)(F)F)c2)[C@H](O)C[C@@H]1O (stereo partly shown)
### Response 0.2

### Prompt Return reported ED5 (equivalent response dose, from Area1-5 of pupil diameter versus time curve). Input compound: CC(C)(C)C(=O)OCCCC/C=C\C[C@@H]1[C@@H](CC[C@@H](O)COc2cccc(Cl)c2)[C@H](O)C[C@@H]1O
### Response 0.06

### Prompt Supply measured ED5 (equivalent response dose, from Area1-5 of pupil diameter versus time curve) of CC(C)OC(=O)CCC/C=C\C[C@@H]1[C@@H](/C=C/[C@@H](O)COc2cccc(Cl)c2)[C@H](O)C[C@@H]1O in your reply.
### Response 0.01
